- EXPERIMENTAL PROTOCOL: Counterscreen qHTS for Inhibitors of Tau Fibril Formation, Fluorescence Polarization; further: nearly all actives have a fitted effect of over 55% in size; further: potency means the concentration at half of the fitted maximal effect; tags describe the fitted curve by direction and shape or compound fluorescence and quenching
- TEST CONDITIONS: tau K18 P301L (four-repeat tau fragment) Alexa594 fluorescence, heparin fibrillization; series mostly up to 57.7 µM
About 2,600 (0.93%) of roughly 280,000 compounds were called active. Another 8% or so got no clear call; they are omitted. Many of the other results were omitted from the sample, so actives are more common in it than they were.
ENDPOINT NAME: Potency

// worked examples, Potency included
>  <COMPOUND>
COC(=O)CCc1sc(Nc2ccc(Br)cc2)nc1-c1ccc(OC)cc1

>  <Potency>
8.91 µM [quencher] (active)

$$$$
>  <COMPOUND>
CCN(C(=O)Cn1cnc2sc(C)c(S(=O)(=O)N3CCN(c4ncccn4)CC3)c2c1=O)c1ccccc1F

>  <Potency>
inactive

$$$$
>  <COMPOUND>
O=C(CCN1C(=O)c2ccccc2C1=O)Nc1ccncc1

>  <Potency>
inactive

$$$$
>  <COMPOUND>
Cc1ccc(OC(=O)CCC(=O)Nc2ccc(Br)cc2)cc1

>  <Potency>
inactive

$$$$
>  <COMPOUND>
CCC(=O)N1CCc2cc(CNS(=O)(=O)c3ccc(Br)s3)ccc21

>  <Potency>
inactive

$$$$

Value of Potency reported for the compound `Cc1cc(Nc2ccccc2)nc(N)n1` is inactive

Value of Potency reported for the compound `NS(=O)(=O)c1ccc(CCNC(=O)Nc2ccc(Cl)cc2)cc1` is inactive

Value of Potency reported for the compound `COc1cccc(Nc2nc3ccccc3c3nncn23)c1` is inactive

Value of Potency reported for the compound `CSc1nc(Nc2ccc(F)cc2)cc(-c2ccccc2)n1` is 7.08 µM [quencher] (active)

Value of Potency reported for the compound `Oc1ccc(CNc2ccccc2O)cc1` is 17.8 µM [quencher] (active)

Source of measurements: PubChem BioAssay AID1463
